These data points were gathered from patent US5128359A.

Biological target: TXA2 receptors of human platelets (Homo sapiens, UniProt P21731)
Construct: Human platelets incubate in the presence of a single concentration; endogenous in cells
Sequence (P21731 1-343): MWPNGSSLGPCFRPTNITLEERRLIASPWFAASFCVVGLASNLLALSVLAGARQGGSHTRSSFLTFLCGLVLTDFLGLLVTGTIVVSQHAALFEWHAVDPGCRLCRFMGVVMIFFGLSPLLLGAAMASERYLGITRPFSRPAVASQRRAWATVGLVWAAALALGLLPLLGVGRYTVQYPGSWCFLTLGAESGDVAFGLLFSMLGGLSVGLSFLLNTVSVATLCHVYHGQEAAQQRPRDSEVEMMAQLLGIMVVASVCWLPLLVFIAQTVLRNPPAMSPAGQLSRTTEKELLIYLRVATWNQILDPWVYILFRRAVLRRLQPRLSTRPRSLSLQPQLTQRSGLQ
Test: displacement of radioligand [^125 I]PTA-OH specifically bound to the TXA2 receptors of human platelets
Details: determined according to the formula of CHENG and PRUSOFF, read-out: Ki (inhibition constant)
pKi: −log10 of the molar value.
Result Type: pKi

Below, each entry is followed by its recorded pKi result.
INPUT: Record request: pKi value, item CC(C)(CC(=O)O)Cc1nc2ccccc2n1Cc1ccc(Br)cc1 [Example 69]
OUTPUT: 7.80

INPUT: Record request: pKi value, item O=C(O)CC1(Cc2nc3cc(F)ccc3n2Cc2ccc(Cl)cc2)CCCC1 [Example 72]
OUTPUT: 7.37

INPUT: Record request: pKi value, item CC(C)(CC(=O)O)Cc1nc2ccccc2n1Cc1ccc([N+](=O)[O-])cc1 [Example 81]
OUTPUT: 7.22

INPUT: Record request: pKi value, item CC(C)(CC(=O)O)Cc1nc2cc(F)ccc2n1Cc1ccc(Cl)cc1 [Example 74]
OUTPUT: 8.20

INPUT: Record request: pKi value, item COc1ccc(Cn2c(CC(C)(C)CC(=O)O)nc3ccccc32)cc1 [Example 68]
OUTPUT: 7.51

INPUT: Record request: pKi value, item CSc1ccc(Cn2c(CC(C)(C)CC(=O)O)nc3cc(F)ccc32)cc1 [Example 96]
OUTPUT: 8.30

INPUT: Record request: pKi value, item CC(C)(CC(=O)O)Cc1nc2cc(F)ccc2n1Cc1ccc(Cl)c(Cl)c1 [Example 80]
OUTPUT: 8.22

[1] CSc1ccc(Cn2c(CC(C)(C)CC(=O)O)nc3cc(Cl)ccc32)cc1 [Example 117]
[2] CC(C)(CC(=O)O)Cc1nc2cc(F)ccc2n1Cc1ccc(S(C)(=O)=O)cc1 [Example 97]
INPUT: Decide: 1 or 2 , by lowest recorded pKi. Selection: enter the item's label.
OUTPUT: 2

###

Molecular target: TXA2 receptors of human platelets (Homo sapiens, UniProt P21731)
Construct: Human platelets incubate in the presence of a single concentration; endogenous in cells; host or cells: human platelets
Sequence (P21731 1-343): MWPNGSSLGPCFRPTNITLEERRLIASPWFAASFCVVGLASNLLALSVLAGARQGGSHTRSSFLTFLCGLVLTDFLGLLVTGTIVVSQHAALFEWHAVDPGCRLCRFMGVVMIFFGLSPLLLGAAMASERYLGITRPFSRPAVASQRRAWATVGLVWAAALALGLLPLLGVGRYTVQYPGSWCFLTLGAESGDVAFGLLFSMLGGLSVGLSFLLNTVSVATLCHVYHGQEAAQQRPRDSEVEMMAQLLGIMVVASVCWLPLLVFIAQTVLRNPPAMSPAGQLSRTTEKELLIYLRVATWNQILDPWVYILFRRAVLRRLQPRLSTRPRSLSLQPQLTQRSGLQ
Assay: displacement of radioligand [^125 I]PTA-OH specifically bound to the TXA2 receptors of human platelets
Type: binding
Conditions: 0.5 h, 1E-7 M competing agent, 30 minutes at 37° C, read-out: % displacement, Concentration 1E-7 M
Result Type: inhibition at 0.1 µM (%)

Below, each entry is followed by its recorded inhibition at 0.1 µM result.
INPUT: Record request: inhibition at 0.1 µM value, item O=C(O)CCCSc1nc2ccccc2n1Cc1ccc(Cl)cc1
OUTPUT: 37

INPUT: Record request: inhibition at 0.1 µM value, item CC(C)(CC(=O)O)Cc1nc2cc(F)ccc2n1Cc1ccc(Br)cc1F
OUTPUT: 100

INPUT: Record request: inhibition at 0.1 µM value, item CC(C)(CC(=O)O)Cc1nc2cc(Cl)ccc2n1Cc1ccc(Cl)cc1F
OUTPUT: 77

INPUT: Record request: inhibition at 0.1 µM value, item CC(C)(CC(=O)O)Cc1nc2cc(Cl)ccc2n1Cc1ccc(S(C)(=O)=O)cc1
OUTPUT: 61

INPUT: Record request: inhibition at 0.1 µM value, item O=C(O)CC1(Cc2nc3cc(F)ccc3n2Cc2ccc(Cl)cc2)CCCC1
OUTPUT: 71

[P] CC(C)(CC(=O)O)Cc1nc2cc(F)ccc2n1Cc1ccc2ccccc2c1
[Q] O=C(O)[C@@H]1CCC[C@H]1c1nc2cc(F)ccc2n1Cc1ccc(Cl)cc1 (relative stereo)
[R] O=C(O)CCCSc1nc2cc(F)ccc2n1Cc1ccc(Cl)cc1
INPUT: Provide the items ranked by increasing inhibition at 0.1 µM. # respond with the labels, arranged in the requested order
OUTPUT: R, Q, P
(R: 8%, Q: 37%, P: 91%)

[A] O=C(O)[C@@H]1CC[C@H]1c1nc2cc(F)ccc2n1Cc1ccc(Cl)cc1 (relative stereo)
[B] CC(C)(CC(=O)O)Cc1nc2cc(F)ccc2n1Cc1ccc(Cl)c(Cl)c1
INPUT: Decide: A or B , by lowest recorded inhibition at 0.1 µM. Selection: enter the item's label.
OUTPUT: A
